- Substrate: O=c1ccn([C@@H]2O[C@H](COP(=O)(O)OP(=O)(O)O[C@H]3O[C@H](CO)[C@H](O)[C@H](O)[C@H]3O)[C@@H](O)[C@H]2O)c(=O)[nH]1
- Assay Name: UDP release, Michaelis-Menten fit
- Format: biochemical, Homo sapiens
- Condition Summary: 2 mM Gb4 glycan fixed, 20 mM HEPES pH 7.4, 0.1 mM MnCl2
Think of 200 M⁻¹ s⁻¹ as a floor: if kcat/Km stands on it or above, it is 1; beneath it, 0.

Take a look at these entries with their results.
1. soluble β3GalT5-1 (HEK293) (Homo sapiens; Q69M/S66A) (protein, soluble luminal domain N29-V310, no TM; expressed in HEK293 cells, complex-type N-glycans) NPFKEQSFVYKKDGNFLKLPDTDCRQTPPFLVLLVTSAHKMLAERMAIRQTWGKERMVKGKQLKTFFLLGTTSSAAETKEVDQESQRHGDIIQKDFLDVYYNLTLKTMMGIEWVHRFCPQAAFVMKTDSDMFINVDYLTELLLKKNRTTRFFTGFLKLNEFPIRQPFSKWFVSKSEYPWDRYPPFCSGTGYVFSGDVASQVYNVSKSVPYIKLEDVFVGLCLERLNIRLEELHSQPTFFPGGLRFSVCLFRRIVACHFIKPRTLLDYWQALENSRGEDCPPV ... 1
2. soluble β3GalT5-1 (HEK293) (Homo sapiens; Q69A) (protein, soluble luminal domain N29-V310, no TM; expressed in HEK293 cells, complex-type N-glycans) NPFKEQSFVYKKDGNFLKLPDTDCRQTPPFLVLLVTSSHKALAERMAIRQTWGKERMVKGKQLKTFFLLGTTSSAAETKEVDQESQRHGDIIQKDFLDVYYNLTLKTMMGIEWVHRFCPQAAFVMKTDSDMFINVDYLTELLLKKNRTTRFFTGFLKLNEFPIRQPFSKWFVSKSEYPWDRYPPFCSGTGYVFSGDVASQVYNVSKSVPYIKLEDVFVGLCLERLNIRLEELHSQPTFFPGGLRFSVCLFRRIVACHFIKPRTLLDYWQALENSRGEDCPPV ... 0
3. soluble β3GalT5-1 (HEK293) (Homo sapiens) (protein, soluble luminal domain N29-V310, no TM; expressed in HEK293 cells, complex-type N-glycans) NPFKEQSFVYKKDGNFLKLPDTDCRQTPPFLVLLVTSSHKQLAERMAIRQTWGKERMVKGKQLKTFFLLGTTSSAAETKEVDQESQRHGDIIQKDFLDVYYNLTLKTMMGIEWVHRFCPQAAFVMKTDSDMFINVDYLTELLLKKNRTTRFFTGFLKLNEFPIRQPFSKWFVSKSEYPWDRYPPFCSGTGYVFSGDVASQVYNVSKSVPYIKLEDVFVGLCLERLNIRLEELHSQPTFFPGGLRFSVCLFRRIVACHFIKPRTLLDYWQALENSRGEDCPPV ... 1
4. soluble β3GalT5-1 (HEK293) (Homo sapiens; S66A) (protein, soluble luminal domain N29-V310, no TM; expressed in HEK293 cells, complex-type N-glycans) NPFKEQSFVYKKDGNFLKLPDTDCRQTPPFLVLLVTSAHKQLAERMAIRQTWGKERMVKGKQLKTFFLLGTTSSAAETKEVDQESQRHGDIIQKDFLDVYYNLTLKTMMGIEWVHRFCPQAAFVMKTDSDMFINVDYLTELLLKKNRTTRFFTGFLKLNEFPIRQPFSKWFVSKSEYPWDRYPPFCSGTGYVFSGDVASQVYNVSKSVPYIKLEDVFVGLCLERLNIRLEELHSQPTFFPGGLRFSVCLFRRIVACHFIKPRTLLDYWQALENSRGEDCPPV ... 1
5. soluble β3GalT5-1 (HEK293) (Homo sapiens; Q69M) (protein, soluble luminal domain N29-V310, no TM; expressed in HEK293 cells, complex-type N-glycans) NPFKEQSFVYKKDGNFLKLPDTDCRQTPPFLVLLVTSSHKMLAERMAIRQTWGKERMVKGKQLKTFFLLGTTSSAAETKEVDQESQRHGDIIQKDFLDVYYNLTLKTMMGIEWVHRFCPQAAFVMKTDSDMFINVDYLTELLLKKNRTTRFFTGFLKLNEFPIRQPFSKWFVSKSEYPWDRYPPFCSGTGYVFSGDVASQVYNVSKSVPYIKLEDVFVGLCLERLNIRLEELHSQPTFFPGGLRFSVCLFRRIVACHFIKPRTLLDYWQALENSRGEDCPPV ... 1

// switching to the query protein
Request: Record soluble β3GalT5-1 (HEK293) (Homo sapiens; Q69A/S66A) (protein, soluble luminal domain N29-V310, no TM; expressed in HEK293 cells, complex-type N-glycans) NPFKEQSFVYKKDGNFLKLPDTDCRQTPPFLVLLVTSAHKALAERMAIRQTWGKERMVKGKQLKTFFLLGTTSSAAETKEVDQESQRHGDIIQKDFLDVYYNLTLKTMMGIEWVHRFCPQAAFVMKTDSDMFINVDYLTELLLKKNRTTRFFTGFLKLNEFPIRQPFSKWFVSKSEYPWDRYPPFCSGTGYVFSGDVASQVYNVSKSVPYIKLEDVFVGLCLERLNIRLEELHSQPTFFPGGLRFSVCLFRRIVACHFIKPRTLLDYWQALENSRGEDCPPV ; criterion: kcat/Km no lower than 200 M⁻¹ s⁻¹. Met?
Response: 0
